Protocol: BSK_LPS_SRB: Viability Assessment in the BioMAP Diversity Plus: LPS Assay (AID 2283079);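 note: total protein by sulforhodamine B absorbance as a cytotoxicity measure; measured one day after compound addition; fitted in both directions against DMSO so loss or gain of signal counts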
Experimental Setup: primary human HUVEC with PBMC
The source made the active and inactive calls. Rule for the calls: active = hit-call score of the fitted dose curve at least 0.9, where 1 is the maximum; inactive = score below 0.9.
Valid outcomes are listed here; reply with one: active, inactive

Exercise: Assay outcome for `CCNc1nc(Cl)nc(NC(C)(C)C#N)n1` : what was it?
Solution: inactive

Exercise: Which outcome did this test record for the compound `CCCCSP(=O)(SCCCC)SCCCC` ?
Solution: active

Exercise: Each compound tested received a call. Report the one for `C#CC(C)(C)NC(=O)c1cc(Cl)cc(Cl)c1` .
Solution: inactive

Exercise: Dear all, I need the recorded test outcome for `COc1cc(OC)nc(Sc2cccc(Cl)c2C(=O)O)n1` , thank you.
Solution: inactive

Exercise: Which outcome was entered for the compound `CCC(=O)Nc1ccc(Cl)c(Cl)c1` in this test?
Solution: inactive

Exercise: Called result for `CCCSP(=O)(OCC)SCCC`
Solution: inactive

Exercise: Recorded call for COP(=O)(OC)C(O)C(Cl)(Cl)Cl (configuration not stated) ?
Solution: inactive

----------
Protocol: BSK_CASM3C_SRB: Viability Assessment in the BioMAP Diversity Plus: CASM3C Assay (AID 2283050);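 note: total protein by SRB staining as cytotoxicity measure in parallel cultures; cells exposed to compound for 24 h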
Experimental Setup: primary human coronary artery smooth muscle cells
Calls of active or inactive are those of the source. How the source made its calls: active means hit-call score of the fitted dose curve at least 0.9, where 1 is the maximum; inactive means score below 0.9.
Parameter: outcome

[[record]]
molecule = "CCc1cnc(C2=NC(C)(C(C)C)C(=O)N2)c(C(=O)O)c1 (stereo not given)"
parameter = "outcome"
value_measured = "inactive"

[[record]]
molecule = "Cc1cc(C2CC2)nc(Nc2ccccc2)n1"
parameter = "outcome"
value_measured = "inactive"

[[record]]
molecule = "CCCCN(CC)c1c([N+](=O)[O-])cc(C(F)(F)F)cc1[N+](=O)[O-]"
parameter = "outcome"
value_measured = "inactive"

[[record]]
molecule = "O=C(O)c1cc(Oc2ccc(C(F)(F)F)cc2Cl)ccc1[N+](=O)[O-]"
parameter = "outcome"
value_measured = "inactive"

[[record]]
molecule = "CC(COc1ccc(Oc2ccccc2)cc1)Oc1ccccn1 (stereo not given)"
parameter = "outcome"
value_measured = "inactive"


Continue with the next molecule.
Exercise: # return recorded outcome for input `CNC(=O)ON=C(SC)C(=O)N(C)C`
Solution: inactive

----------
Protocol: APR_HepG2_P-H2AX_24hr: Apredica 24-hour HepG2 Assay for H2AX Phosphorylation (AID 2282920)
Experimental Setup: high-content imaging, actives raise or lower the signal
The source made the active and inactive calls. How the source made its calls: active means hit-call score of the fitted dose curve at least 0.9, where 1 is the maximum; inactive means score below 0.9.
Result category, one only: True for active, False for inactive

Exercise: Entry `C[N+]1(C)CCCCC1` : call = ?
Solution: False

Exercise: Dear colleague, could you share the recorded outcome for `COP(=O)(OC)SCn1c(=O)oc2cc(Cl)cnc21` when you have a moment?
Solution: False

Exercise: Returns: the outcome recorded for `CCCOCC(=Nc1ccc(Cl)cc1C(F)(F)F)n1ccnc1` in this assay.
Solution: False

Exercise: Which result was noted for this molecule in the test: CCOC(=O)CC(SP(=O)(OC)OC)C(=O)OCC (stereo not drawn)
Solution: False

Exercise: What did this assay record as the result for `CCOP(=O)(OCC)Oc1cc(C)nc(C(C)C)n1` ?
Solution: False

Exercise: What did this assay record as the result for `O=C(O)c1cc(Oc2ccc(C(F)(F)F)cc2Cl)ccc1[N+](=O)[O-]` ?
Solution: False

Exercise: Hello, I am checking results. What call was entered for `CCOC(=O)COc1cc(-c2nn(C)c(OC(F)F)c2Cl)c(F)cc1Cl` ?
Solution: False

Exercise: Recorded test call requested for `CCCCOC(=O)c1ccccc1C(=O)O`
Solution: False

Exercise: Field: outcome | Entry: `COc1cc(OC)nc(Sc2cccc(Cl)c2C(=O)O)n1`
Solution: False

Exercise: What is the recorded call for this molecule in the test? C#CCC1=C(C)C(OC(=O)C2C(C=C(C)C)C2(C)C)CC1=O (stereo not drawn)
Solution: False

Exercise: Which outcome was assigned to `CC(=NC#N)N(C)Cc1ccc(Cl)nc1` in this test?
Solution: False

Exercise: What did the test return for COP(=O)(OC)C(O)C(Cl)(Cl)Cl (stereo not drawn) ?
Solution: True

Exercise: Look up the recorded call for CC(COc1ccc(Oc2ccccc2)cc1)Oc1ccccn1 (stereo not drawn) in this test.
Solution: False
